Where these numbers come from: patent US4730054A

- method.summary: Acute toxicity LD50 in rats p.o.
- measurement.conditions: rat, in vivo, po, LD50, male rats
assay.readout: LD50 (mg/kg)
Give bare numbers, in mg/kg.

Ask | I have this molecule here, Clc1ccc2c(c1)C(n1ccnc1)c1ccsc1SC2 (stereo not shown) [Compound Ib] , and I need its recorded LD50.
Reply | 1570

----------
- System: S pastorianus
assay.readout: log10(MIC) (log10 of the value in µg/mL)
Use the decimal logarithm of MIC (µg/mL).

CC(=O)N1CCN(c2ccc(OCC3COC(Cn4ccnc4)(c4ccc(Cl)cc4Cl)O3)cc2)CC1 (centres unmarked) ... 1.70
Clc1ccc2c(c1)C(n1ccnc1)c1ccsc1SC2 (centres unmarked) ... 1.10
c1ccc2c(c1)CSc1sccc1C2n1ccnc1 (centres unmarked) ... 1.40
Clc1ccc(COC(Cn2ccnc2)c2ccc(Cl)cc2Cl)c(Cl)c1 (centres unmarked) ... 0.79

Now for the compound whose log10(MIC) we want.
Ask | Observed log10(MIC) on S pastorianus for `Clc1ccccc1C(c1ccccc1)(c1ccccc1)n1ccnc1` , please.
Reply | 0.49
